- System: MEL-JUSO (Melanoma)
- assayComment: combination Emax (second highest fraction inhibited in the dose matrix, 72 h); higher = more inhibition; extreme values may be limits of the assay
propertyMeasured: combination Emax

| compound | propertyMeasured | recordedValue |
| --- | --- | --- |
| Cc1cc2ncnn2cc1Nc1ncc2c(n1)n(C1CCOCC1)c(=O)n2C [AZD7648] + CCN(CCO)CCCOc1ccc2c(Nc3cc(CC(=O)Nc4cccc(F)c4)[nH]n3)ncnc2c1 [AZD2811] (first compound max 10 µM, 7x7, partner max 1 µM) | combination Emax | 0.258 |
| COc1cccc(OCCCN)c1-c1cc(Nc2cnc(C#N)cn2)n[nH]1 [Prexasertib] + CN(C)CCCOc1ccc(-c2ccc3ncc4c(c3c2)n(C2CCOCC2)c(=O)n4C)cn1 [AZD0156] (first compound max 1 µM, 7x7, partner max 1 µM) | combination Emax | 0.751 |
| CN(CCO)CC[C@H](CSc1ccccc1)Nc1ccc(S(=O)(=O)NC(=O)c2ccc(N3CCC([C@@H](O)c4ccccc4-c4ccc(Cl)cc4)CC3)cc2)cc1S(=O)(=O)C(F)(F)F [AZD4320] + CN(C)CCCOc1ccc(-c2ccc3ncc4c(c3c2)n(C2CCOCC2)c(=O)n4C)cn1 [AZD0156] (first compound max 1 µM, 7x7, partner max 1 µM) | combination Emax | 0.212 |
| NC1(C(=O)N[C@@H](CCO)c2ccc(Cl)cc2)CCN(c2ncnc3[nH]ccc23)CC1 [Capivasertib] + CC(C)n1c(=O)n(C)c2cnc3cc(F)c(-c4ccc(OCCCN5CCCCC5)nc4)cc3c21 [AZD1390] (first compound max 10 µM, 7x7, partner max 0.3 µM) | combination Emax | 0.164 |

---

- Tested on: MKN28 (Gastric Carcinoma);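 further: after 72 h of two-drug dosing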
- assayComment: Bliss excess, mean over the matrix (fraction); higher = more synergy
Short version: Bliss excess at least -0.02 is Y, less is N.

| compound | assignedLabel |
| --- | --- |
| C=CCn1c(=O)c2cnc(Nc3ccc(N4CCN(C)CC4)cc3)nc2n1-c1cccc(C(C)(C)O)n1 [AZD1775] + C1CN(CCC1(C(=O)N[C@@H](CCO)C2=CC=C(C=C2)Cl)N)C3=NC=NC4=C3C=CN4 [Capivasertib] (first compound max 3 µM, partner max 3 µM) | N |
| CCc1c2c(nc3ccc(O)cc13)-c1cc3c(c(=O)n1C2)COC(=O)[C@]3(O)CC [SN-38] + CN(C)CCCOc1ccc(-c2ccc3ncc4c(c3c2)n(C2CCOCC2)c(=O)n4C)cn1 [AZD0156] (first compound max 0.3 µM, 7x7, partner max 1 µM) | Y |
| C=CCn1c(=O)c2cnc(Nc3ccc(N4CCN(C)CC4)cc3)nc2n1-c1cccc(C(C)(C)O)n1 [AZD1775] + Nc1ccn([C@@H]2O[C@H](CO)[C@@H](O)C2(F)F)c(=O)n1 [Gemcitabine] (first compound max 1 µM, partner max 0.3 µM) | Y |
| CN(CCO)CC[C@H](CSc1ccccc1)Nc1ccc(S(=O)(=O)NC(=O)c2ccc(N3CCC([C@@H](O)c4ccccc4-c4ccc(Cl)cc4)CC3)cc2)cc1S(=O)(=O)C(F)(F)F [AZD4320] + Nc1ccn([C@@H]2O[C@H](CO)[C@@H](O)C2(F)F)c(=O)n1 [Gemcitabine] (first compound max 1 µM, 7x7, partner max 0.3 µM) | N |
| N#Cc1cnc(Nc2cc(NC[C@H]3CNCCO3)c(C(F)(F)F)cn2)cn1 [SRA737] + C=CCn1c(=O)c2cnc(Nc3ccc(N4CCN(C)CC4)cc3)nc2n1-c1cccc(C(C)(C)O)n1 [AZD1775] (first compound max 10 µM, partner max 1 µM) | Y |
| C=CCn1c(=O)c2cnc(Nc3ccc(N4CCN(C)CC4)cc3)nc2n1-c1cccc(C(C)(C)O)n1 [AZD1775] + CCc1c2c(nc3ccc(O)cc13)-c1cc3c(c(=O)n1C2)COC(=O)[C@]3(O)CC [SN-38] (first compound max 1 µM, partner max 0.3 µM) | Y |
| O=C(c1cc(Cc2n[nH]c(=O)c3ccccc23)ccc1F)N1CCN(C(=O)C2CC2)CC1 [Olaparib] + Cc1c2c(nn1C)CSCc1cc(n(C)n1)CSc1cc(c3ccccc3c1)OCCCc1c(C(=O)O)n(C)c3c-2c(Cl)ccc13 [AZD5991] (first compound max 10 µM, 7x7, partner max 1 µM) | N |
